Test system: IL-4 induced STAT6 phosphorylation
Assay: Inhibition of IL-4 induced STAT phosphorylation in Ramos B cell line, flow cytometry
Type: cell-based, human
Details: ScFv 10 μg/ml
Overview of recorded p-STAT6 inhibition (%) for various molecules
Expressed in %, but write only the number.

Example molecules with recorded p-STAT6 inhibition (%):
1) SM-05J: anti-γc antibody; CDR SEQ ID NO: 148, 150, 152, 156, 158, 160 (antibody, V domains shown, left off: another chain or arm of the molecule; small tags and cut ends) VH: EVQLQQSGPELVKPGASVKISCKTSGYTFTEYTMHWVKQSHGKSLEWIGGIDPYNGGITYNQRFKGKATLTVDKSSSTAYMELRSLTSEDSAVYYCARRRLYYGYALDYWGQGTSVTVSS VL: DVVMTQTPLSLPVSLGDQASISCRSSQSIVHSNGNTYLEWYLQKPGQSPKLLIYKVSNRFSGVPDRFSGSGSGTDFTLKISRVEAEDLGVYYCFQGSHVPFTFGSGTKLEIK
82.22
2) SM-05C: anti-γc antibody; CDR SEQ ID NO: 36, 38, 40, 44, 46, 48 (antibody, V domains shown, left off: another chain or arm of the molecule; small tags and cut ends) VH: QVQLQQSGPELVKPGASVKIFCKTSGYTFTEYTMHWVKQSHGESLEWIGGIDPNTGGATYNQKFKGKATLTADKSSSTAYMELRSLTSEDSAVYYCARRRRYYGYAMDYWGQGTSVTVSS VL: DVVMTQTPLSLPVSLGDQASISCRSSQSLVHSNGNTYLHWYLQKPGQSPKLLIYKVSNRFSGVPDRFSGSGSGTDFTLKISRVEAEDLGIYYCFQDSHVPFTFGSGTKLEIK
45.99

# p-STAT6 inhibition (%) of SM-05F: anti-γc antibody, full-length chimeric; CDR SEQ ID NO: 84, 86, 88, 92, 94, 96 (antibody, V domains shown) VH: EVQLQQSGPELVKPGASVKIFCKTSGYTFTEYTMHWVKQSHGESLEWIGGIDPNTGGVTYNQKFKGKATLTADKSSSTAYMELRSLTSEDSAVYYCARRRRYYGYALDYWGQGTSVTVSS VL: DVLMTQTPLSLPVSLGDQASISCRSSQSIVHNNGNTYLEWYLQKPGQSPKLLIYKVSNRFFGVPDRFSGSGSGTYFTLKISRVEAEDLGVYYCFQGSHVPWTFGGGTKLEIKR = 45.99

# p-STAT6 inhibition (%) of SM-05L: anti-γc antibody; CDR SEQ ID NO: 180, 182, 184, 188, 190, 192 (antibody, V domains shown, left off: another chain or arm of the molecule; small tags and cut ends) VH: EVQLQQSGPELVKPGASVKISCKTSGYTFTEYTMHWVKQSHGKSLEWIGGIDPNSGGATYNQKFKGKATLTVDKSSSTAYMEVRSLTSEDSAVYYCARRRLYYGYAMDYWGQGTSVTVSS VL: DVLMTQTPLSLPVSLGGQASISCRSSQNIVHSNGNTYLEWYLQKPGQSPKLLIYKVSNRFSGVPDRFSGSGSGTDFTLKISRVEAEDLGVYFCSQSTHVPFAFGSGTKLEIK = 73.54

# p-STAT6 inhibition (%) of SM-05D: anti-γc antibody; CDR SEQ ID NO: 52, 54, 56, 60, 62, 64 (antibody, V domains shown, left off: another chain or arm of the molecule; small tags and cut ends) VH: QVQLQQSGPELVKPGASVKISCKTSGYTFTEYTMHWVKQSHGKSLEWIGGIDPYNGGVTYNQRFKGKATLTVDKSSSTAYMEFRSLTSEDSAVYYCARRRLYYGNALDYWGQGTSVTVSS VL: DIVMTQTPLSLPVSLGDQASISCRSSQSIVHRNGNTYLEWYLQKPGQSPKLLIYKVSNRFSGVPDRFSGSGSGTDFTLKISRVEAEDLGVYYCFQGSHVPFTFGSGTKLEIK = 63.77

# p-STAT6 inhibition (%) of SM-05B: anti-γc antibody; CDR SEQ ID NO: 20, 22, 24, 28, 30, 32 (antibody, V domains shown, left off: another chain or arm of the molecule; small tags and cut ends) VH: QVQLQQSGPELVKPGASVKIFCKTSGYTFTEYTMHWVKQSHGESLEWIGGIDPNTGGATYNQKFKGKATLTADKSSSTAYMELRSLTSEDSAVYYCARRRRYYGYALDYWGQGTSVTVSS VL: DVLMTQTPLSLPVSLGDQASISCRSSQSIVHSNGNTYLEWYLQKPGQSPKLLIYKVSNRFSGVPDRFSGSGSGTDFTLKISRVEAEDLGVYFCSQSTHVPWTFGGGTKLEIK = 76.95
